Biological target: fibrin (Homo sapiens, UniProt P02671+P02675+P02679)
Construct: purchased Kabi Vitrum
Sequence (P02671 20-644 isoform P02671-2 limits assumed): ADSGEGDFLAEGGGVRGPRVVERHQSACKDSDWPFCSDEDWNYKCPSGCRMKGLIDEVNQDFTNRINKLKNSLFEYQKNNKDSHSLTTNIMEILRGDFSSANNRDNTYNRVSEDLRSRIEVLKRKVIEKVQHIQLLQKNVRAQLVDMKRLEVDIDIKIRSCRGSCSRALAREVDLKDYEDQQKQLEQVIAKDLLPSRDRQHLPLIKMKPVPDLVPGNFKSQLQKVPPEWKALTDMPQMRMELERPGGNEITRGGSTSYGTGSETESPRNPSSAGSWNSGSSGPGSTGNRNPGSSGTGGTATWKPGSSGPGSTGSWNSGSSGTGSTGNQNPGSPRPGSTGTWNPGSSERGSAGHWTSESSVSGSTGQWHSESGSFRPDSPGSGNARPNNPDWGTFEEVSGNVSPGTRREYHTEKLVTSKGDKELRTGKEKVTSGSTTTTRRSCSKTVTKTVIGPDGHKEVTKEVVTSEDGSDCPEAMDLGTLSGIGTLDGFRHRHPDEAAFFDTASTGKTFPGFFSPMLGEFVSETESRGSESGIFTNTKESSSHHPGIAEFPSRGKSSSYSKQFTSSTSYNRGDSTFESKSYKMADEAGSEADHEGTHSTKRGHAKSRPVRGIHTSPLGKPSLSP
Sequence (P02675 45-491 limits assumed): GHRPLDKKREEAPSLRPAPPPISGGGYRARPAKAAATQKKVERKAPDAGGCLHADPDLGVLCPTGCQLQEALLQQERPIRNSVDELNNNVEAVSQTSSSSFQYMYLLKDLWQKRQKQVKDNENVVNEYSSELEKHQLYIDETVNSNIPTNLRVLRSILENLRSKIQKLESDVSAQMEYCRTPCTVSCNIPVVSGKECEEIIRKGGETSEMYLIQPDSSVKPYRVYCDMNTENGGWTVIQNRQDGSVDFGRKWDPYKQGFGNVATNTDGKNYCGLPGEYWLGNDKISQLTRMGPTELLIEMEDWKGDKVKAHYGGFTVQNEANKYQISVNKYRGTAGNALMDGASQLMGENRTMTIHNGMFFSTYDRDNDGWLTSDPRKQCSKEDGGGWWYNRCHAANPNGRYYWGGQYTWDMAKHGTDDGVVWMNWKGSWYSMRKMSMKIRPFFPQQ
Sequence (P02679 27-437 isoform P02679-2 limits assumed): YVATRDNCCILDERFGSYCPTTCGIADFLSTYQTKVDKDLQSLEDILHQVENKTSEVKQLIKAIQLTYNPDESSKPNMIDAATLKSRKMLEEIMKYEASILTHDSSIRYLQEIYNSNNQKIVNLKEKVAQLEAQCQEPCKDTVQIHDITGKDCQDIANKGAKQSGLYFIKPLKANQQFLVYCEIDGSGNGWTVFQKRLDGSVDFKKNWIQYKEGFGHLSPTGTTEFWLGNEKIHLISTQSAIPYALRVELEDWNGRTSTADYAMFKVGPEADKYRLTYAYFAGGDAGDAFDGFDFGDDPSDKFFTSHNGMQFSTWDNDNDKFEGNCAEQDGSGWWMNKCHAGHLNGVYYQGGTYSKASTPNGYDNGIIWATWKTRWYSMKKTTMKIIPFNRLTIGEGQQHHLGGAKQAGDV
Assay: Fibrin binding: binding of tPA to fibrin, tPA antigen in supernatant by ELISA
Conditions: 15 μg/ml peptide; 200 ng/ml single chain melanoma tPA, 200 μg/ml human fibrinogen; no peptide = 48
Where no end group is shown, it is not given here.
Measured % Bound (binding of tPA to fibrin) accompanies every entry in the list below.
quantity: % Bound (binding of tPA to fibrin) (%)

1) LYFSDFVCQCPEGFAGKCCEIDTRA [Peptide 150, 25 amino acid synthetic peptide fragment of native human tPA] ... 52
2) ERFPPHHLTVILGRTYRVVPGEEEQ-NH2 [Peptide 176] ... 53
3) CNSGRAQCHSVPVKSCSEPRCFNGG-amide (CNSGRAQCHSVPVKSCSEPRCFNGG-NH2; cysteine pairing not given here) [Peptide 147, 25 amino acid synthetic peptide amide fragment of native human tPA] ... 55
4) ERLKEAHVRLYPSSRCTSQHLLNRT-NH2 [Peptide 186] ... 50

Cited source: patent US5039791A
